Assay: Stability in phosphate buffer at pH 4 assessed as half life at 30 ug/ml measured for 24 hrs by analytical HPLC analysis
Assay type: physicochemical
Conditions: dose 30 µg/ml
testReadout: half-life at 30 ug/ml

Q: For the compound COc1cc(N2C(=O)C(O)C2c2ccc(SC)cc2)cc(OC)c1OC (racemic) , what half-life at 30 ug/ml is on record?
A: 16 h

Continue with the next compound.
Q: For the compound COc1cc(N2C(=O)C(c3ccccc3)C2c2ccc(SC)cc2)cc(OC)c1OC (racemic) , what half-life at 30 ug/ml is on record?
A: 10 h

###

Target: Tubulin (Bos taurus) (UniProt Q6B856+Q862L2+Q862F3)
Test: Inhibition of bovine tubulin polymerisation assessed as fold reduction in Vmax at 10 uM measured every 30 secs for 30 mins by spectrophotometric method relative to control
Assay type: protein assay
testReadout: fold change (FC)

Q: For the compound C=CC1C(=O)N(c2cc(OC)c(OC)c(OC)c2)C1c1ccc(SC)cc1 (racemic) , what fold change (FC) is on record?
A: 3.4

Q: Thanks! And COc1ccc(/C=C\c2cc(OC)c(OC)c(OC)c2)cc1O ?
A: 2

Q: Thanks! And COc1cc(N2C(=O)C(O)C2c2ccc(SC)cc2)cc(OC)c1OC (racemic) ?
A: 3.5

Q: Thanks! And COc1cc(N2C(=O)C(c3ccccc3)C2c2ccc(SC)cc2)cc(OC)c1OC (racemic) ?
A: 3.4

Others:
Q: For the compound COc1cc(N2C(=O)C(Cl)C2c2ccc(SC)cc2)cc(OC)c1OC (racemic) , what fold change (FC) is on record?
A: 2
